Biological target: T1, soluble human ILT4-ECD (human, UniProt Q8N423 22-460)
T1 construct: also called LILRB2 extracellular domain
T1 sequence (Q8N423 other isoform, or with tags, fused parts or gaps): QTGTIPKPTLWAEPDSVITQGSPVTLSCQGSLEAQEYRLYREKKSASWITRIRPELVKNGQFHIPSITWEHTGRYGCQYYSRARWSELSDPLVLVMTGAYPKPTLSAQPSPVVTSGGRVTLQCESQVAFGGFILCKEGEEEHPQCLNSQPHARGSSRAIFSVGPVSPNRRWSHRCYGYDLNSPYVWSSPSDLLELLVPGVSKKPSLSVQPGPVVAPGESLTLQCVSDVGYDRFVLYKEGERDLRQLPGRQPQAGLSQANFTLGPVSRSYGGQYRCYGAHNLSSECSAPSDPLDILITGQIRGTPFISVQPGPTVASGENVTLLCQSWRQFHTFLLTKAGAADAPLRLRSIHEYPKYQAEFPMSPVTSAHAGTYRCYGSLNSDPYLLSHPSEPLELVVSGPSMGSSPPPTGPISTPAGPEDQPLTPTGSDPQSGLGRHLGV
Assay: SPR (Biacore) as described in Example 3
Observable: kon (M⁻¹ s⁻¹)
The reply should be a number in M⁻¹ s⁻¹, with the unit left off.

Q: Query (binder): humanized anti-ILT2/ILT4 antibody Hz47H6.v2 (antibody, human IgG1, kappa, N297G, V domains shown) VH: QVQLVQSGAEVKKPGASVKVSCKASGYTFTDYYMNWVRQAPGQRLEWIGDFNPNNAGTTYNQKFEGRVTITVDKSASTAYMELSSLRSEDTAVYYCARGRFYYGSLYSFDYWGQGTLVTVSS VL: DIQMTQSPSSLSASVGDRVTITCRASGNIHNYLAWYQQKPGKAPKLLIYNAKTLADGVPSRFSGSGSGTDFTLTISSLQPEDFATYYCQHFWTSITFGPGTKVDIKR ; field requested: kon
Ans: 87000
